Form field: IC50 (pM), blocking of Ba/F3 cell proliferation (one value per entry).
- measured target: T1, non-tagged, non-linked native human IL-23p19/p40 coexpressed in SF9 cells (eBioscience CAT No. 34-8239) (human, UniProt P29460 23-328)
- T1 sequence 1: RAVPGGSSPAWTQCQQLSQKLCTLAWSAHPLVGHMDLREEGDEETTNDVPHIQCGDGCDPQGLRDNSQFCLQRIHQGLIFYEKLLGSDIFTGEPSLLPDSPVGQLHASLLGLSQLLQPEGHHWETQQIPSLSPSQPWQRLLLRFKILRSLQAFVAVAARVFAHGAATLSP
- T1 sequence 2: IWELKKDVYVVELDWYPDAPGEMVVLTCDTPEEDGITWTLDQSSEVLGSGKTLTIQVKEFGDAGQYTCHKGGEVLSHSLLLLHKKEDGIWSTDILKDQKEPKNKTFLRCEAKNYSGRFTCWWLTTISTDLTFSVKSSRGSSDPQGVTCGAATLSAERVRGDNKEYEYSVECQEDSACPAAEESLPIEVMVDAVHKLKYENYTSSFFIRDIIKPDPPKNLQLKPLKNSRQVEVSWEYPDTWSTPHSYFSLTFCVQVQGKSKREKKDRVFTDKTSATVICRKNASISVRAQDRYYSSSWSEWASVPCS
- assay remarks: cell-based or functional assay
Give the number; pM is assumed, so skip it.

mouse anti-human IL-23p19 antibody 39G2 (antibody, V domains shown, also called m39G2) VH: QVQLQQPGAELVRPGASVKLSCKASGYSFTSSWMNWVKQRPGQGLEWIGMIHPSDSETRTNQKFKDKATLTVDKSSSTAYMQLSSPTSEDSAVYYCARGMITAPTVYWGQGTLVTVSA VL: DIVLTQSPASLAVSLGQRATISCRASKSVSTSAYSYFHWYQQKPGQPPKLLIYLASNLESGVPARFSGSGSGTDFTLNIHPVEEEDAATYYCQHSRELPWTFGGGTKLEITP ... 11
mouse anti-human IL-23p19 antibody 3D7 (antibody, V domains shown, also called m3D7) VH: QVQLQQSGPELVKPGASVKISCKASGYSFTSYYIHWVKQRPGQGLEWIGWIFPGSGNTKYNEKFKGKATLTADTSSTTAYMQLSSLTSEASAVYFCAREGLHYFGLYAMDYWGHGTSVTVSS VL: DIQMTQTTSSLSASLGDRVTISCSASQGISNYLNWFQQKPDGTVKLLIYYTSSLHSGVPSRFSGSGSGTDYSLTISNLEPEDIATYYCQQYSKLPYTFGGGTKLEIKR ... 2

In the following, a different binder is considered.
Exam item: Please give measured IC50 (pM), blocking of Ba/F3 cell proliferation of the following entry: mouse anti-human IL-23p19 antibody 33B12 (antibody, V domains shown, also called m33B12) VH: QVQLQQSGAELARPGASVKLSCKASGYTFTSYSLKWVKQRTGQGLEWIGEIHPRSGNTHYNEKFKGKATLTADKSSSTAYMDLRSLTSEDSAVYFCATNWDLGYWGQGTTITVSS VL: DIVLTQSPATLSVTPGDRVSLSCRASQSISDYLHWFQQRSHESPRLLIKYASQSISGIPSRFSGSGSGSDFTLSINSVEPEDVGVYYCQNGHSFPFTFGSGTKLEIKR
Marked response: 57

The origin of these recorded values is patent US20130039916A1.
